Target: EPHB1 (UniProt P54762)
Sequence (P54762 whole entry, looked up): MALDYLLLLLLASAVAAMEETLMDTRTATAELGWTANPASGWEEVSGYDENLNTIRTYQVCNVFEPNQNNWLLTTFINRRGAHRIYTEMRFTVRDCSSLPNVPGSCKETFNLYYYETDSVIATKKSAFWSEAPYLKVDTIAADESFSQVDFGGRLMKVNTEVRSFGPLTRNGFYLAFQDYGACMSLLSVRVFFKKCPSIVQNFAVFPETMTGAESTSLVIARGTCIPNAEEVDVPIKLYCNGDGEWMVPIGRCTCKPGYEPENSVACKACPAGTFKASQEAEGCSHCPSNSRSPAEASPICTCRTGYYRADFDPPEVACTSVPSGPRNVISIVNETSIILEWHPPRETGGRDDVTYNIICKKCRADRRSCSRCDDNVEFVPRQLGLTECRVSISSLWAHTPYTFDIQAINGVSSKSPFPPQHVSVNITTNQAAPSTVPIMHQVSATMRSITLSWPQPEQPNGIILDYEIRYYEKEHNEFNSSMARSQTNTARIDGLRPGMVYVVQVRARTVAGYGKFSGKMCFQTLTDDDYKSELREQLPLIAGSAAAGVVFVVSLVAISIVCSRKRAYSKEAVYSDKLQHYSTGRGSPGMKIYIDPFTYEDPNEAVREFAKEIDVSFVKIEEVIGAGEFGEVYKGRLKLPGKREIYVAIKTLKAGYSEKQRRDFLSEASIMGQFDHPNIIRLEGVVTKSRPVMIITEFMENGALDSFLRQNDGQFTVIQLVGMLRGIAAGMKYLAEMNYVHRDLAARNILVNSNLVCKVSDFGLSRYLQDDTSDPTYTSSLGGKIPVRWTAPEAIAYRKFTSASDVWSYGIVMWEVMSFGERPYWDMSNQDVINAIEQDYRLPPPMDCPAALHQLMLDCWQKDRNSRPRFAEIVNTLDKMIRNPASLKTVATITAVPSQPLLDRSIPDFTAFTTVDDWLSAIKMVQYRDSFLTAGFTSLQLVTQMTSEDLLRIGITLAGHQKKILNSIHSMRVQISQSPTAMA
Assay: phosphorylation enrichment, bacterial display (enrichment ratio); higher = better substrate or ligand; peptides without Tyr show the background;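 also: 11-residue human phosphosite peptides and single-mutation variants displayed on the E. coli surface, counted by deep sequencing, each peptide's frequency after selection divided by its frequency in the unselected input library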;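 also: frequency after pTyr selection over input frequency; kinase dosed for 20-30% of maximal phosphorylation in three min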
Binary classification by phosphorylation enrichment, with 0.6 as an inclusive lower bound for Yes; all other cases are No.

# count of solved cases: 10
(Q) Reported phosphorylation enrichment reaches at least 0.6 for SARFRYLLAEK [LDHB_Y173_M175L] ?
(A) No

(Q) Given the entry FEEVVYQAMEE [TACC3_Y684] , answer whether its phosphorylation enrichment meets or surpasses 0.6.
(A) Yes

(Q) Textbook exercise: given the entry KLSHLYQDHMQ [WNT5A_Y86_C83S] , state whether its phosphorylation enrichment is greater than or equal to 0.6.
(A) No

(Q) Does the reported phosphorylation enrichment for RELSWYRGQRP [HESX1_Y106_R109Q] fall at or above the 0.6 mark?
(A) No

(Q) Determine whether measured phosphorylation enrichment meets or exceeds 0.6 for RIAFQYGVTDL [MYBPC3_Y340]
(A) Yes

(Q) Hello, I need to know if SPFAVYLFFTF [RPGRIP1_Y826_R827L_YF] has measured phosphorylation enrichment not below 0.6. Thanks!
(A) No

(Q) Does phosphorylation enrichment meet or surpass 0.6 for VLTSKYPGGGG [HBA1_Y141_R142P] ?
(A) No

(Q) Record PYSNSYENSLI [EPOR_Y489_P488S] ; criterion: phosphorylation enrichment no lower than 0.6. Met?
(A) Yes

(Q) Could you verify whether the entry AVLSLYASDRT [ACTA1_Y145_G148D] shows phosphorylation enrichment of no less than 0.6?
(A) Yes

(Q) Is reported phosphorylation enrichment greater than or equal to 0.6 here: FQNSLYAPDYS [FAM92A_Y226_R222Q]
(A) Yes

***
(Q) # check: phosphorylation enrichment of QISSNYDDAMQ [ZNF281_Y531] is greater than or equal to 0.6
(A) Yes

(Q) In plain terms: is recorded phosphorylation enrichment at least 0.6 for RGEAVYSRDCV [XPC_Y676] ?
(A) Yes

(Q) Assess whether reported phosphorylation enrichment for GIMEEYQLPYY [BMPR1A_Y453_V450M] sits at 0.6 or higher.
(A) Yes

(Q) Could you verify whether the entry QCQLKYSETPF [SIX6OS1_Y129_Y125C] shows phosphorylation enrichment of no less than 0.6?
(A) Yes

(Q) Test whether the sequence SVVVPYELPEV [TP53_Y220_P222L] records phosphorylation enrichment of 0.6 or higher.
(A) Yes

(Q) Please check the record QVKEQYQDVPM [PKP2_Y659_K654Q] and state if its phosphorylation enrichment is at or above 0.6.
(A) No

(Q) Given the entry LERYIYNREEL [HLA-DPB1_Y59_F64L] , answer whether its phosphorylation enrichment meets or surpasses 0.6.
(A) Yes

(Q) Kindly determine if phosphorylation enrichment recorded for WAAQRYGRELR [BAD_Y110] is above or exactly 0.6.
(A) No

(Q) Quick check: does RLEGVYGNNID [PTEN_Y46_R47G] have phosphorylation enrichment greater than or equal to 0.6?
(A) No

(Q) Has LPVHFYGHVEH [PYGM_Y204] a recorded phosphorylation enrichment greater than or equal to 0.6?
(A) Yes

(Q) // inclusive: phosphorylation enrichment at least 0.6? input: KVQVSYKGETK [HSPA1A_Y107]
(A) No

(Q) Is phosphorylation enrichment for VTNHIYTWVDP [DFNB31_Y234] at or above 0.6?
(A) Yes

(Q) Could you please find out whether IKETHYMVDKC has phosphorylation enrichment that meets 0.6 or exceeds it?
(A) No

(Q) Exam item: decide whether the reported phosphorylation enrichment for RCLKDYGEFEV [GINS1_Y156] is at least 0.6.
(A) No

(Q) Hello, I need to know if PGLKGYPGLSG [COL4A2_Y306_R304K] has measured phosphorylation enrichment not below 0.6. Thanks!
(A) No

(Q) Is it the case that VDASFCGGRGV [ANTXR2_Y381_Y381C_YF] has phosphorylation enrichment reaching or exceeding 0.6?
(A) No

(Q) Determine whether measured phosphorylation enrichment meets or exceeds 0.6 for FMYKVYSDPQP [FGFR1_Y280_C277Y]
(A) Yes

(Q) Decide: is the reported value of phosphorylation enrichment for DKATEYSQYMR [MAX_Y70_I71S] equal to or greater than 0.6?
(A) No
